Attribute: nonsense suppression
B1: tRNA (parent)
chain: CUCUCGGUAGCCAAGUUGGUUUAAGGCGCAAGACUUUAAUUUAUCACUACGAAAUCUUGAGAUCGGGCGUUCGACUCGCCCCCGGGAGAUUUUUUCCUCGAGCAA

- Variants of: B1
- measurementProtocol: nonsense suppression (GFP-seq) (ratio to wild type); higher = more function; SUP4oc tRNA, yeast GFP reporter sort-seq
Fewer inactive variants are shown than the library holds.

Record excerpt, results attached:
monomersequence=CUCUCGGUAGCCAAGUUGGUUAAAGGCGCAAGACUUUAAUUUAUCACUACGAAAUCUUGACAUCGGGCGUUCGACUCGCCCCCGGGAGAUUUUUUCCUCGAGCAA endpointvalue=0.203
monomersequence=CUCUCGGUAGCCAAGUUGUUUUAAGCCGCAAGACUUUAAUUUAUCACUACGAAAUCCUGAGAUCGGGCGUUCGACUCGCCCCCGGGAGAUUUUUUCCUCGAGCAA endpointvalue="≤ 0.026"
monomersequence=CUCUCGGUAGCCAAGUUGGUUUAAGGCGCAAGACUUUAAUUUAUCACUACGAAAUCUUGACAUCGGGCGUUCGUCUCGCCCCGGGGAGAUUUUUUCCUCGAGCAA endpointvalue="≤ 0.026"
monomersequence=AUCUCGGUAGCCAAGUUGUUUUAAGGCGCAAGACUUUAAUUUAUCACUACGAAAACUUGAGAUCGGGCGUUCGACUCGCCCCCGGGAGAUUUUUUCCUCGAGCAA endpointvalue="≤ 0.026"
monomersequence=CUCUCGGUAGCCAAGUUGGUUUAAGGCGCAAGAUUUUAAUUUAUCACUACGAAAUCUUGAGACCGGGCGUUCGACUCGCCCCCGCGAGAUUUUUUCCUCGAGCAA endpointvalue="≤ 0.026"
monomersequence=CUCUCGGUAGCCAAGUUGUUUUAGGGCGCAAGACUUUAAUUUAUCACUACGAAAUCUUGAGAUCGGGCGUUCGACUCCCCCCCGGGAGCUUUUUUCCUCGAGCAA endpointvalue="≤ 0.026"

Looking up `CUCUCGGUAGCCAAGUUGGUUUAAGGCGCAAGACUUUAAUUUAUCACUACGAAAUCUUGAGAUCAGGCGUUCGACUCACCCCCGGGAGAUUUUUUCCUCGAGCAA` , I see its nonsense suppression listed as 0.0493

nonsense suppression measured on `UUCUCGGUAGCUAAGUUGGUUUAAGGCGCAAGACUUUAAUUUAUCACUACGAAAUCUUGAGAUCGGGCGUUCGACUCGCCCCCGGGAGAUUUUUUCCUCGAGCAA` = ≤ 0.026

According to the records, this variant `CUCUCGGUAGCCAAGUUGGUUUAAGGCACAAGACUUUAAUUUAUCACUACGAAAUGUUGAGAUCGGGCGUUCGACUCGCCCCCGGGAGCUUUUUUCCUCGAGCAA` displays nonsense suppression of ≤ 0.026
